# STUDY TARGET: His6-AspH315–758 (human aspartate/asparagine-β-hydroxylase, AspH) (Homo sapiens)
# Construct: N-Terminally His6-tagged human AspH315–758 (His6-AspH315–758) was produced in E. coli BL21 (DE3) cells; made in house; host or cells: E. coli BL21 (DE3), pET-28a(+) vector
# Sequence (Q12797 315-758): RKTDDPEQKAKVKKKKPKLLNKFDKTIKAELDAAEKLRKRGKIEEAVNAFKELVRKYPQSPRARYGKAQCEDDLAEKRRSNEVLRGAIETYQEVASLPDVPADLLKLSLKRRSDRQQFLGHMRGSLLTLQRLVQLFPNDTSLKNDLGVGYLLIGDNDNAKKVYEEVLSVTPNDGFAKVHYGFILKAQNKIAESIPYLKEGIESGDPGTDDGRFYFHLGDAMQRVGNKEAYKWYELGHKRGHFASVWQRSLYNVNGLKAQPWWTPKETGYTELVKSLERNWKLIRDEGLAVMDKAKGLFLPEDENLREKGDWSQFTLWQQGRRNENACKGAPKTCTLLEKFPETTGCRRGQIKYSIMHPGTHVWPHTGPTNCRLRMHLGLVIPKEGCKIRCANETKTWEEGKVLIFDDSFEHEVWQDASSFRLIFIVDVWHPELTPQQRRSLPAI
# TEST PROTOCOL: SPE-MS AspH inhibition assay (LOPAC screen at fixed 20 μM and IC50 dose-response), hydroxylation of cyclic peptide hFX-CP101–119
# Format: biochemical
# SETUP CONDITIONS: plate 5 (Pfitzer), test compounds at fixed 20 μM
Lab note: compare Plate 5 (% inhibition) against 10%. Equal or greater, write label 1. Smaller, write label 0.

>  <COMPOUND>
COc1ccc2c(c1)CCC(c1ccccc1)=C2c1ccc(OCCN2CCCC2)cc1

>  <GROUP>
label 0

$$$$
>  <COMPOUND>
O=C(CCSCc1ccco1)NNC(=O)N1Cc2ccccc2Oc2ccc(Cl)cc21

>  <GROUP>
label 1

$$$$
>  <COMPOUND>
Cc1ccc(-c2cc(C(F)(F)F)nn2-c2ccc(S(N)(=O)=O)cc2)cc1

>  <GROUP>
label 0

$$$$
>  <COMPOUND>
CCCc1nn(C)c2c(=O)[nH]c(-c3cc(S(=O)(=O)N4CCN(C)CC4)ccc3OCC)nc12 [sildenafil, reference compound]

>  <GROUP>
label 1

$$$$
>  <COMPOUND>
NC(=O)c1noc([C@H](CCCC2CCCCC2)CC(=O)NO)n1

>  <GROUP>
label 1

$$$$
>  <COMPOUND>
COc1ccc(C2(O)OC(=O)C(c3ccc4c(c3)OCO4)=C2Cc2cc(OC)c(OC)c(OC)c2)cc1 (stereo not shown)

>  <GROUP>
label 1

$$$$
>  <COMPOUND>
CN(C)c1cc(NC(=O)CNC(C)(C)C)c(O)c2c1C[C@H]1C[C@H]3[C@H](N(C)C)C(O)=C(C(N)=O)C(=O)[C@@]3(O)C(O)=C1C2=O [Tigecycline, tigecycline, reference compound]

>  <GROUP>
label 1

$$$$
>  <COMPOUND>
CS(=O)(=O)c1ccc(-n2nc(C(F)(F)F)cc2-c2ccc(F)cc2)cc1

>  <GROUP>
label 0

$$$$

Does the compound CC(C)c1cc(C(C)C)c(CC(=O)NS(=O)(=O)Oc2c(C(C)C)cccc2C(C)C)c(C(C)C)c1 have recorded Plate 5 (% inhibition) that is 10% or more? label 1

Does the compound N#CC(CCCN1CCN(/N=C/c2cccnc2)CC1)(c1ccccc1)c1ccccc1 have recorded Plate 5 (% inhibition) that is 10% or more? label 1

Does the compound CCN(CC)CCNC(=O)c1c(C)[nH]c(/C=C2\C(=O)Nc3ccc(F)cc32)c1C have recorded Plate 5 (% inhibition) that is 10% or more? label 1

Does the compound CCCN1CCC[C@@H](c2cccc(S(C)(=O)=O)c2)C1 have recorded Plate 5 (% inhibition) that is 10% or more? label 1

Does the compound Cc1c(O)cccc1C(=O)N[C@@H](CSc1ccccc1)[C@H](O)CN1C[C@H]2CCCC[C@H]2C[C@H]1C(=O)NC(C)(C)C have recorded Plate 5 (% inhibition) that is 10% or more? label 1

Does the compound Cc1cc(C)c(/C=C2\C(=O)Nc3ccc(Cl)cc32)[nH]1 have recorded Plate 5 (% inhibition) that is 10% or more? label 0
